# System: HT29 colon
# protocolDescription: NCI-60 one-dose screen, 48 h
# runParameters: 10 µM unless noted
This is part of a sample that, as a whole, favours compounds with a hit. Of some 83,000 tested, about 20% had one in any assay. The source made the active and inactive calls. How the source made its calls: active means growth percent below 10; inactive means the rest.
The reply should be one of these categories: YES (active), NO (inactive)

# molecule, assayTarget, group
records = [
    ("COC(=O)C1=C(C(=O)OC)C23C=C(C)C1C2=C(C)C1(CC1)[C@@](C)(O)C3=O (stereo not given in full)", "HT29 colon", "YES"),
    ("Cc1cc(Nc2cc(N3CCN(C)CC3)nc(/C=C/c3ccccc3)n2)n[nH]1", "HT29 colon", "YES"),
    ("O=c1[nH]c(N2CCOCC2)nc2scc(-c3ccccc3)c12", "HT29 colon", "NO"),
    ("CC(=Nc1ccccc1)C1=C(O)C(Cc2ccccc2)NC1=O (stereo not given)", "HT29 colon", "YES"),
    ("Cc1csc(-c2nnc(Nc3ccc(Oc4ncccc4-c4ccnc(N)n4)cc3)c3ccccc23)c1", "HT29 colon", "NO"),
]

Challenge: Answer briefly: the call reported for COc1cc2ncnc(Nc3ccc(O)cc3)c2cc1OC in this assay.
Response given: NO

Challenge: Hello, I am checking results. What call was entered for Cc1cc(Nc2ncc(Cl)c(Nc3ccccc3S(=O)(=O)C(C)C)n2)c(OC(C)C)cc1C1CCNCC1 ?
Response given: YES

Challenge: How did this test come out for CC12O[C@H](C[C@@H](OC(=O)CCC(=O)O)[C@H]1O)n1c3ccccc3c3c4c(c5c6ccccc6n2c5c31)C(=O)NC4=O ?
Response given: NO

Challenge: Recorded test outcome, item Nc1nc(Nc2ccccc2)c(C=Nc2ccccc2)c(=O)[nH]1
Response given: NO

Challenge: Name the outcome recorded for CCN1CCN(Cc2ccc(Cc3ncc(F)c(-c4cc(F)c5nc(C)n(C(C)C)c5c4)n3)nc2)CC1 in the assay.
Response given: NO

====

# System: K-562 leukemia
# protocolDescription: NCI-60 one-dose screen, 48 h (100 = growth as untreated, 0 = no growth, -100 = all killed)
# runParameters: 10 µM unless noted
# Protocol: Cells are grown in 96 well plates and exposed to the test compound for 48 hours. Compounds are tested at a single concentration, which is 10^-5 M for most compounds. The reported endpoint is percent growth (GI% or GIPRCNT), where numbers from 0 - 100% represent growth inhibition, and numbers from -100% - 0 represent cell death. For example, a value of 40 represents 60% growth inhibition. A value of 0 means no net growth occurred over the course of the experiment. […]
About 83,000 compounds went through this panel and 20% of them were active in at least one assay; those are over-represented in the sample as a whole.
Would you mind telling me the reported growth of each entry?
Numbers only, in %.

Worked cases, growth given:
# compound, growth, %
measured = [
    ("COc1ccc(Cl)c(Nc2nc3ccccc3nc2NS(=O)(=O)c2cccc(NC(=O)C(C)(C)N)c2)c1", 63.3),
    ("COc1cc2c(Oc3ccc4[nH]c(C)cc4c3F)ncnc2cc1OCCCN1CCCC1", 71.2),
    ("CCOC(=O)C1=C(C)NC(=O)NC1c1cc(=O)oc2ccc(C)cc12 (centres undefined)", 103),
]

Now turn to the next compound.
Measured growth of CC(=O)O[C@]1(C)C[C@H](O)[C@]2(O)C=CO[C@H](O[C@@H]3O[C@H](CO)[C@@H](O)[C@H](O)[C@H]3O)[C@@H]21 : 97.3
